Recorded MIC C. difficile by entry
System: Clostridioides difficile NAP1
method.description: MIC against C. difficile NAP1, modified broth microdilution
experimental.context: NAP1, modified broth microdilution, 48 h, anaerobic

| molecule | MIC C. difficile, µg/mL |
| --- | --- |
| CC1(C)CCCC2(C)C1CCC(C)(O)C2Cc1ccc(O)cc1 (stereo not drawn) [Compound 34] | 16.0 |
| CC(=O)Oc1cc2c(cc1OC(C)=O)[C@@H](OC(C)=O)[C@@H]1[C@@]3(C)CCCC(C)(C)[C@@H]3CC[C@]1(C)O2 [Compound 20, 15-α-acetoxypuupehenol diacetate] | 2.0 |
| CC1(C)CCCC2(C)C1CCC(C)(O)C2Cc1ccc(O)cc1O (stereo not drawn) [Compound 36] | 8.0 |
| CC1(C)CCC[C@]2(C)[C@H]3C=C4C=C(O)C(=O)C=C4O[C@@]3(C)CC[C@@H]12 [Compound 1, (+)-Puupehenone] | 2.0 |
| CO[C@@H]1c2cc(OC(=O)C(C)(C)C)c(O)cc2O[C@@]2(C)CC[C@H]3C(C)(C)CCC[C@]3(C)[C@@H]12 [Compound 19, 15-α-methoxypuupehenol monopivalate] | 4.0 |
| CO[C@@H]1c2cc(OC(C)=O)c(OC(C)=O)cc2O[C@@]2(C)CC[C@H]3C(C)(C)CCC[C@]3(C)[C@@H]12 [Compound 15] | 4.0 |
